Reference source for all entries: patent EP3860956B1

assay: Thermal stability test in synthetic North Sea water; format: physicochemical; details: 1% active acid in synthetic North Sea water, pH 5.5, 140 °C, one week, 31P NMR; percentage by weight
// boundary case: Decomposition (%) equal to 10% maps to false; strictly smaller maps to true

{"columns": ["molecule", "group"],
 "data": [
  ["O=P(O)(O)CN(CP(=O)(O)O)CP(=O)(O)O", "false"],
  ["O=P(O)(O)CN(CCN(CP(=O)(O)O)CP(=O)(O)O)CCN(CP(=O)(O)O)CP(=O)(O)O", "false"]
]}

Determine whether this compound shows Decomposition (%) lower than 10% (ties excluded): "O=P(O)(O)CN(CCO)CP(=O)(O)O"
false

Determine whether this compound shows Decomposition (%) lower than 10% (ties excluded): "O=C(O)CCCCCNC(P(=O)(O)O)P(=O)(O)O"
true

Determine whether this compound shows Decomposition (%) lower than 10% (ties excluded): "CC(O)(P(=O)(O)O)P(=O)(O)O"
true
